tgt: T1, CD4 cell surface receptor molecule on peripheral blood mononuclear cells (PBMCs) (human, UniProt P01730 26-458)
T1 construct: whole, on cells; also called CD4 receptor molecule
protocolNotes: flow cytometry, PBMCs, live CD3+ T cells; column 'Fab multimer -> D-biotin -> Fab multimer': second Fab-multimer staining after D-biotin and washing
binders and their reported percentage of cells within gate

binder	scaleUnit	percentage of cells within gate
Mutant 13B8.2 Fab fragment with Tyr at position 92 of the light chain mutated to Ala, heavy chain fused to One-STrEP-tag (Fab, V domains shown, also called CD4 mutant 2 (Y92A); mutant 2) VH: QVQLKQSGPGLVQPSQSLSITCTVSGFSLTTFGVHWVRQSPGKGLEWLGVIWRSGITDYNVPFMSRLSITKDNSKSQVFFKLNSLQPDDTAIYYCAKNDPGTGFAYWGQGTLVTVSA VL: DIQMTQSPASLSASVGETVTFTCRASEMIYSYLAWYQQKQGKSPQLLVHDAKTLAEGVPSRFSGGGSGTQFSLKINTLQPEDFGTYYCQHHAGNPPTFGGGTKLEIKR	%	18.8
Mutant 13B8.2 Fab fragment with His at position 35 of the heavy chain mutated to Ala, heavy chain fused to One-STrEP-tag (Fab, V domains shown, also called CD4 mutant 3 (H35A); mutant 3) VH: QVQLKQSGPGLVQPSQSLSITCTVSGFSLTTFGVAWVRQSPGKGLEWLGVIWRSGITDYNVPFMSRLSITKDNSKSQVFFKLNSLQPDDTAIYYCAKNDPGTGFAYWGQGTLVTVSA VL: DIQMTQSPASLSASVGETVTFTCRASEMIYSYLAWYQQKQGKSPQLLVHDAKTLAEGVPSRFSGGGSGTQFSLKINTLQPEDFGTYYCQHHYGNPPTFGGGTKLEIKR	%	19.3
